Values compiled from PubChem BioAssay (NCI).

Test system: SK-OV-3 ovarian
run_description: NCI-60 one-dose screen, 48 h (100 = growth as untreated, 0 = no growth, -100 = all killed)
assay_conditions: 10 µM
About 83,000 compounds went through this panel and 20% of them were active in at least one assay; those are over-represented in the sample as a whole.

| molecule | tested_system | growth [%] |
| --- | --- | --- |
| CCn1c(SC/C(=N/O)c2ccccc2)nnc1-c1ccccc1 | SK-OV-3 ovarian | 89.7 |
| O=[N+]([O-])c1ccc2ncccc2c1Cl | SK-OV-3 ovarian | 63.6 |
| C(=N\Nc1ncnc2sc3c(c12)CCNC3)/c1cccc2ccccc12 | SK-OV-3 ovarian | 103 |
| CS(=O)(=O)c1nccc(-c2c(-c3cccc(OCCc4ccccc4)c3)nc3sccn23)n1 | SK-OV-3 ovarian | 96.5 |
| COc1ccc2c(c1)CC=C1[C@@H]2CC[C@]2(C)C(=O)/C(=N/O)C[C@@H]12 | SK-OV-3 ovarian | 116 |

---

Tested on: SF-539 CNS
run_description: NCI-60 one-dose screen, 48 h
assay_conditions: 10 µM
Procedure: Cells are grown in 96 well plates and exposed to the test compound for 48 hours. Compounds are tested at a single concentration, which is 10^-5 M for most compounds. The reported endpoint is percent growth (GI% or GIPRCNT), where numbers from 0 - 100% represent growth inhibition, and numbers from -100% - 0 represent cell death. For example, a value of 40 represents 60% growth inhibition. A value of 0 means no net growth occurred over the course of the experiment. […]
Compounds without any hit were thinned out: in the full panel of roughly 83,000, 20% have a hit. The source made the active and inactive calls. How the source made its calls: active means growth percent below 10; inactive means the rest.
Labels: Yes = active, No = inactive

| compound | label_class |
| --- | --- |
| Cc1ccc(S(=O)(=O)N/N=C2\CCCc3ccccc32)cc1 | No |
| Cn1c2ccccc2c2c3[nH][nH]c(=O)c3c3c4ccccc4[nH]c3c21 | Yes |
| O=C1Cc2cc(CCN3CCN(c4nsc5ccccc45)CC3)c(Cl)cc2N1 | No |
| O=C(O)c1ccc(-n2cc(CNc3ccc(Oc4ccccc4)cc3)c(-c3ccccc3)n2)cc1 | No |
| OCC1OC(n2cnc3c(NCc4ccco4)ncnc32)C(O)C1O (centres undefined) | No |
| C=CCn1c(SCC(=O)Nc2ccc(C(=O)/C=C/c3cc(OC)c(OC)c(OC)c3)cc2)nnc1-c1cc(-c2ccc(Cl)cc2)nc2ccccc12 | No |
| COc1cc(C2CC(c3ccccc3)=NN2C(C)=O)cc(OC)c1OC (centres undefined) | No |
| Cc1cc(CCNC=O)c(C)c2c1sc1ccccc12 | No |
| COc1ccc(-c2nnc(SCC(=O)Nc3ccc(C(=O)/C=C/c4ccccc4)cc3)n2-c2ccccc2)cc1OC | Yes |
| Cc1ccc(C(=O)C2C(=O)C3CCC2C3)cc1 (centres undefined) | No |
| Cc1ccc(NCCNCC(C)(C)O)c2c(=O)c3ccc(Cl)cc3sc12 | No |
| CC(CN(C)C)Oc1ccccc1NC1=C(Cl)C(=O)C(Nc2ccccc2OC(C)CN(C)C)=C(Cl)C1=O (centres undefined) | Yes |
| NS(=O)(=O)c1ccc(Br)cc1 | No |
| CCN(CC)CCCC(Nc1c2ccc(Cl)cc2nc2ccc(OC)cc12)c1ccc(F)cc1 (centres undefined) | Yes |

---

Test system: NCI-H226 lung
run_description: NCI-60 one-dose screen, 48 h (100 = growth as untreated, 0 = no growth, -100 = all killed)
assay_conditions: 10 µM
Procedure: Growth inhibition of the NCI-H226 human Non-Small Cell Lung tumor cell line is measured as a screen for anti-cancer activity. Cells are grown in 96 well plates and exposed to the test compound for 48 hours. Compounds are tested at a single concentration, which is 10^-5 M for most compounds. The reported endpoint is percent growth (GI% or GIPRCNT), where numbers from 0 - 100% represent growth inhibition, and numbers from -100% - 0 represent cell death. […]
About 83,000 compounds went through this panel and 20% of them were active in at least one assay; those are over-represented in the sample as a whole.
Short version: growth at least 90% is Y, less is N.

| compound | label_class |
| --- | --- |
| COc1ccc2c(c1)OC(N)=C(C#N)C2c1cc(OC)c(OC)c(OC)c1 (centres undefined) | N |
| CC(=O)N[C@H](C(=O)N[C@@H](CCCNC(=N)N)C(=O)N[C@@H](CCCCN)C(=O)N[C@@H](CCCNC(=N)N)C(=O)N[C@]1(C)CCCCCC/C=C\CCC[C@@](C)(C(=O)N[C@@H](CCCNC(=N)N)C(=O)N[C@@H](CCC(=O)O)C(=O)N[C@@H](CC(C)C)C(=O)N[C@H](C(=O)N[C@@H](CCC(=O)O)C(N)=O)C(C)C)NC(=O)[C@H](CCC(N)=O)NC(=O)[C@H](CC(C)C)NC(=O)[C@H](CC(C)C)NC(=O)[C@H](CCCNC(=N)N)NC(=O)[C@H](CCCNC(=N)N)NC(=O)[C@H](CC(C)C)NC1=O)C(C)C | N |
| COc1cc(NC(=O)C2=C(N3CCOCC3)/C(=C/c3ccc(Cl)cc3)CC2)cc(OC)c1OC | N |
| O=c1[nH]c(=O)n(C2C[C@H](O)[C@@H](CO)O2)cc1C(F)(F)F (some centres undefined) | Y |
| c1ccc(CSc2ncccc2-c2nnc(SCCN3CCOCC3)o2)cc1 | Y |
| CCC1NC(=O)c2cc(S(N)(=O)=O)c(Cl)cc2N1 (centres undefined) | Y |
| C#CC(C)(O)[C@@H]1C[C@H](CC(=O)O)C1(C)C (some centres undefined) | Y |
| COc1ccc(-c2nn(-c3cccc(Cl)c3)cc2-c2nc(N)[nH]c(=O)c2C#N)cc1 | N |
| O=C(N/N=C/c1c(Cl)cccc1Cl)c1ccccc1Nc1cccc(C(F)(F)F)c1 | Y |
| O=C(O)Cc1ccc(O)c(O)c1 | Y |
| CC(=O)C1CCC2C3CC=C4CC(SC(=N)N)CCC4(C)C3CCC12C (centres undefined) | N |
| C=C(NC(=O)C(=C)NC(=O)c1csc(C2=NC3c4csc(n4)C4NC(=O)c5csc(n5)C(C(C)(O)C(C)O)NC(=O)C5CSC(=N5)C(=CC)NC(=O)C(C(C)O)NC(=O)c5csc(n5)C3(CC2)NC(=O)C(C)NC(=O)C(=C)NC(=O)C(C)NC(=O)C(C(C)CC)NC2C=Cc3c(C(C)O)cc(nc3C2O)C(=O)OC4C)n1)C(N)=O (centres undefined) | N |
| O=[N+]([O-])c1ccc(NCSc2ccc(Cl)cc2)cc1 | Y |
| CC(=O)Nc1ccc(S(=O)(=O)N/N=C(\C)c2ccc(C)cc2C)cc1 | Y |
| CC(=O)OC1C=CC(OC(C)=O)O1 (centres undefined) | N |
| CCOC(=O)CC(S(=O)(=O)c1ccccc1)S(=O)(=O)c1ccccc1 | Y |
| Fc1ccc(C(c2ccc(F)cc2)C(Cl)Cl)cc1 | Y |
| COc1cc2c(cc1NC(=O)C(F)(F)F)-c1ccc(NC(=O)C(F)(F)F)cc1C2 | N |
| COc1ccc2cc(-c3nc4ccccc4s3)c(Cl)nc2c1OC | Y |
| O=C1CSC(=S)N1/N=C/c1ccc(Cl)s1 | Y |
| COc1ccc(C(=O)c2cc3c(OC)c(OC)c(OC)cc3[nH]2)cc1 | N |
| O=c1oc2c(cc1-c1ccc(F)cc1)C(O)Oc1ccccc1-2 (centres undefined) | Y |
| Clc1nc2ccc(Br)cc2cc1-c1nc2ccccc2[nH]1 | Y |
| COc1ccc2nc(-c3ccc(Cl)cc3)cc(-c3nnc(SC/C(=N\O)c4ccccc4)n3-c3ccccc3)c2c1 | N |
| CC(C)N(CCOc1cccc(-c2nc3sccn3c2-c2ccnc(S(C)(=O)=O)n2)c1)C(C)C | N |
| CCc1cc(Cl)c(OC)c(C(=O)NCC2CCCN2CC)c1O (centres undefined) | Y |
| N=C1S/C(=C/c2ccc(-c3ccc4c(c3)C(=O)NC4=O)o2)C(=O)N1c1ccc(Br)cc1 | N |
| CC(=O)[C@@]12O[C@](C)(c3ccccc3)O[C@@H]1CC1C3CCC4=CC(=O)CC[C@]4(C)C3CC[C@@]12C (some centres undefined) | N |
| COc1ccc(/C=C2/SC(=S)NC2=O)c(OC)c1OC | N |
| CCCCCCCCCCCCCCCCCC[n+]1ccc2c(C)c3c(c(C)c2c1)c1cc(O)ccc1n3CC | N |
| NC1=NC(c2ccccc2)C2=C(N1)/C(=C/c1ccccc1)CCC2 (centres undefined) | Y |
| O=C(COc1cccc(/C=C2\CSc3ccc(Cl)cc3C2=O)c1)c1ccc(Cl)cc1 | N |
| COc1cc2c(cc1OC)C(C(CCCCCC(CCC(C)C)C1NCCc3cc(OC)c(OC)cc31)CCC(C)C)NCC2 (centres undefined) | N |
